src = paper PMC10384862

- test-summary: Biodistribution study with lead-212
- Format: in vivo, mouse
- condition: mouse, blood, intravenous, 100 kBq, 4 h p.i.; n = 4; read-out: Blood uptake

| compound | tissue uptake at 4 h |
| --- | --- |
| C[C@@H](O)[C@H](NC(=O)[C@@H]1CSSC[C@H](NC(=O)[C@@H](Cc2ccccc2)NC(=O)CN2CCC(NC(=O)CN3CCN(CC(N)=O)CCN(CC(N)=O)CCN(CC(N)=O)CC3)CC2)C(=O)N[C@@H](Cc2ccc(O)cc2)C(=O)N[C@H](Cc2c[nH]c3ccccc23)C(=O)N[C@@H](CCCCN)C(=O)N[C@@H]([C@@H](C)O)C(=O)N1)C(=O)O [[^212Pb]Pb-eSOMA-02, metal not drawn] | 0.01 %ID/g |
| C[C@@H](O)[C@H](NC(=O)[C@@H]1CSSC[C@H](NC(=O)[C@@H](Cc2ccccc2)NC(=O)CN2CCN(CC(N)=O)CCN(CC(N)=O)CCN(CC(N)=O)CC2)C(=O)N[C@@H](Cc2ccc(O)cc2)C(=O)N[C@H](Cc2c[nH]c3ccccc23)C(=O)N[C@@H](CCCCN)C(=O)N[C@@H]([C@@H](C)O)C(=O)N1)C(=O)O [[^212Pb]Pb-DOTAM-TATE, metal not drawn, reference compound] | 0.02 %ID/g |
